- Method Summary: Cytotoxicity against African green monkey Vero cells assessed as cell viability after 72 hrs by MTT assay
- Format: cell-based
- Measurement Parameters: chlorocebus sabaeus
Property Label: log10 CC50 at 72 h (log10 of the value in µM)
Form field - Quantity: CC50 at 72 h; Unit: µM; Scale: log10

Query: What value of measured log10 CC50 at 72 h is listed for `Clc1nc(NCCCCOc2nc(Cl)nc(Nc3ccccc3)n2)nc(Nc2ccccc2)n1` ?
Result: 0.89

Query: Which log10 CC50 at 72 h is reported for this compound? `c1ccc(Nc2nc(NCCCCOc3nc(NCCCN4CCOCC4)nc(Nc4ccccc4)n3)nc(NCCCN3CCOCC3)n2)cc1`
Result: 1.14

Query: Reported log10 CC50 at 72 h for `c1ccc(Nc2nc(NCCCCOc3nc(Nc4ccccc4)nc(N4CCCc5ccccc54)n3)nc(N3CCCc4ccccc43)n2)cc1` : what is it?
Result: 1.23

Query: What value of log10 CC50 at 72 h has been recorded for this entry: `N=C(N)c1ccc(OCCCCCOc2ccc(C(=N)N)cc2)cc1`
Result: 1.93

Query: Any idea what log10 CC50 at 72 h was measured for `CCCNc1nc(NCCCCOc2nc(NCCC)nc(Nc3ccccc3)n2)nc(Nc2ccccc2)n1` ?
Result: 2.33

Query: I would be grateful if you could share the reported log10 CC50 at 72 h for `CC(C)(C)Nc1nc(NCCCCOc2nc(Nc3ccccc3)nc(NC(C)(C)C)n2)nc(Nc2ccccc2)n1` .
Result: 2.30

Query: Which log10 CC50 at 72 h is reported for this compound? `Clc1nc(NCCCCCOc2nc(Cl)nc(Nc3ccccc3)n2)nc(Nc2ccccc2)n1`
Result: 1.23

Query: Record request: log10 CC50 at 72 h value, item `c1ccc(Nc2nc(NCCCCOc3nc(NCCN4CCOCC4)nc(Nc4ccccc4)n3)nc(NCCN3CCOCC3)n2)cc1`
Result: 2.06

Query: Please give the measured log10 CC50 at 72 h for this compound: `CN1CCN(c2nc(NCCCCOc3nc(Nc4ccccc4)nc(N4CCN(C)CC4)n3)nc(Nc3ccccc3)n2)CC1`
Result: 1.30

Query: I am curious: what log10 CC50 at 72 h value has been reported for `CCN1CCN(c2nc(NCCCCOc3nc(Nc4ccccc4)nc(N4CCN(CC)CC4)n3)nc(Nc3ccccc3)n2)CC1` ?
Result: 1.21

Query: What measured log10 CC50 at 72 h goes with `c1ccc(Nc2nc(NCCCCOc3nc(Nc4ccccc4)nc(N4CCOCC4)n3)nc(N3CCOCC3)n2)cc1` ?
Result: 2.44

Query: Suppose we examine the compound `CCCNc1nc(NCCCCOc2nc(Nc3ccccc3)nc(NC3CC3)n2)nc(Nc2ccccc2)n1` ; what log10 CC50 at 72 h value has been reported?
Result: 1.26

* * *

- Test system: Leishmania donovani
- Method Summary: Antileishmanial activity against amastigote stage of Leishmania donovani MHOM/IN/80/Dd8 infected in mouse J-774A.1 cells after 72 hrs by luciferase reporter gene assay
- Format: functional, organism-based
- Measurement Parameters: MHOM/IN/80/Dd8, J774.A1, 72 h
Property Label: pIC50
When answering, recall that pIC50 equals minus log10 of the concentration in mol/L, and write that number alone.

Query: Could you share which pIC50 value was measured for `CCCNc1nc(Nc2ccccc2)nc(OCCCCNc2nc(Nc3ccccc3)nc(NC3CC3)n2)n1` ?
Result: 5.58

Query: Fill blank: measured pIC50 of the compound `CCCNc1nc(NCCCCOc2nc(NCCC)nc(Nc3ccccc3)n2)nc(Nc2ccccc2)n1` is ____.
Result: 5.70

Query: Consider the compound shown here: `Clc1nc(NCCCCOc2nc(Cl)nc(Nc3ccccc3)n2)nc(Nc2ccccc2)n1` What is its recorded pIC50?
Result: 4.99

Query: Reported pIC50, compound CCCCCCCCCCCCCCCCOP(=O)([O-])OCC[N+](C)(C)C [MILTEFOSINE] : ____
Result: 5.09

Query: So what does the record say about pIC50 for `c1ccc(Nc2nc(NCCCCOc3nc(NCCN4CCOCC4)nc(Nc4ccccc4)n3)nc(NCCN3CCOCC3)n2)cc1` ?
Result: 5.54

Query: # lookup: pIC50 of `c1ccc(Nc2nc(NCCCCOc3nc(Nc4ccccc4)nc(N4CCc5ccccc5C4)n3)nc(N3CCc4ccccc4C3)n2)cc1`
Result: 5.12

Query: Quick check: pIC50 of `CN1CCN(c2nc(NCCCCOc3nc(Nc4ccccc4)nc(N4CCN(C)CC4)n3)nc(Nc3ccccc3)n2)CC1` ?
Result: 5.88

* * *

Provide the reported IC50 of each item.
- System: Leishmania donovani
- Method Summary: Antileishmanial activity against amastigote stage of Leishmania donovani MHOM/IN/80/Dd8 infected in mouse J-774A.1 cells after 72 hrs by luciferase reporter gene assay
- Format: functional, organism-based
- Measurement Parameters: MHOM/IN/80/Dd8, J774.A1, 72 h
Please respond with the number in µM and leave the unit unwritten.

Query: Given the molecule `c1ccc(Nc2nc(NCCCCOc3nc(Nc4ccccc4)nc(N4CCOCC4)n3)nc(N3CCOCC3)n2)cc1` , what is its reported IC50?
Result: 3.15

Query: Name the reported IC50 value associated with the molecule `CCCCCNc1nc(NCCCCOc2nc(NCCCCC)nc(Nc3ccccc3)n2)nc(Nc2ccccc2)n1`
Result: 6.46

Query: I would be grateful if you could share the reported IC50 for `Clc1nc(NCCCCCOc2nc(Cl)nc(Nc3ccccc3)n2)nc(Nc2ccccc2)n1` .
Result: 8.98

* * *

- System: Leishmania donovani
- Method Summary: Antileishmanial activity against amastigote stage of Leishmania donovani MHOM/IN/80/Dd8 infected in mouse J-774A.1 cells after 72 hrs by luciferase reporter gene assay
- Type: functional, organism-based
- Measurement Parameters: MHOM/IN/80/Dd8, J774.A1, 72 h
Property Label: IC50 (µM)
Answer format: numeric, µM implied, no suffix.

Query: Which measured IC50 value corresponds to `CCCCNc1nc(NCCCCOc2nc(NCCCC)nc(Nc3ccccc3)n2)nc(Nc2ccccc2)n1` ?
Result: 3.21

Query: I would be grateful if you could share the reported IC50 for `c1ccc(Nc2nc(NCCCCOc3nc(Nc4ccccc4)nc(N4CCCc5ccccc54)n3)nc(N3CCCc4ccccc43)n2)cc1` .
Result: 8.98

Query: Return reported IC50; argument: `CCN1CCN(c2nc(NCCCCOc3nc(Nc4ccccc4)nc(N4CCN(CC)CC4)n3)nc(Nc3ccccc3)n2)CC1`
Result: 0.86

Query: Request the reported IC50 associated with `N=C(N)c1ccc(OCCCCCOc2ccc(C(=N)N)cc2)cc1`
Result: 13.7

Query: Reported IC50 for `CC(C)Nc1nc(NCCCCOc2nc(Nc3ccccc3)nc(NC(C)C)n2)nc(Nc2ccccc2)n1` : what is it?
Result: 3.51

* * *

Record form. Attribute: IC50. Fill in for each entry.
- Tested on: Leishmania donovani
- Method Summary: Antileishmanial activity against amastigote stage of Leishmania donovani MHOM/IN/80/Dd8 infected in mouse J-774A.1 cells after 72 hrs by luciferase reporter gene assay
- Assay type: functional, organism-based
- Measurement Parameters: MHOM/IN/80/Dd8, J774.A1, 72 h
Please give a number only; it is taken to be in nM.

Query: Provide the documented IC50 with Leishmania donovani as the system for `c1ccc(Nc2nc(NCCCCOc3nc(NCCCN4CCOCC4)nc(Nc4ccccc4)n3)nc(NCCCN3CCOCC3)n2)cc1`
Result: 1700

Query: API: value(readout= IC50, system= Leishmania donovani, query= `CC(C)(C)Nc1nc(NCCCCOc2nc(Nc3ccccc3)nc(NC(C)(C)C)n2)nc(Nc2ccccc2)n1` )
Result: 770

Query: Recorded IC50 for `CCCNc1nc(NCCCCOc2nc(Nc3ccccc3)nc(NC3CC3)n2)nc(Nc2ccccc2)n1` with Leishmania donovani, please?
Result: 8260

* * *

- Method Summary: Cytotoxicity against African green monkey Vero cells assessed as cell viability after 72 hrs by MTT assay
- Type: cell-based
- Measurement Parameters: chlorocebus sabaeus
Give measured CC50 at 72 h for each item. Keep answers brief.

Query: Please give the measured CC50 at 72 h for this molecule: `CCCCNc1nc(NCCCCOc2nc(NCCCC)nc(Nc3ccccc3)n2)nc(Nc2ccccc2)n1`
Result: > 400 µM

Query: Report CC50 at 72 h for `c1ccc(Nc2nc(NCCCCOc3nc(Nc4ccccc4)nc(N4CCc5ccccc5C4)n3)nc(N3CCc4ccccc4C3)n2)cc1` please.
Result: > 400 µM

Query: # query: CC50 at 72 h of entry `CCCCCNc1nc(NCCCCOc2nc(NCCCCC)nc(Nc3ccccc3)n2)nc(Nc2ccccc2)n1`
Result: > 400 µM

Query: Which CC50 at 72 h is reported for this molecule? `CCCNc1nc(Nc2ccccc2)nc(OCCCCNc2nc(Nc3ccccc3)nc(NC3CC3)n2)n1`
Result: > 400 µM

Query: Please look up its CC50 at 72 h: `CC(C)Nc1nc(NCCCCOc2nc(Nc3ccccc3)nc(NC(C)C)n2)nc(Nc2ccccc2)n1`
Result: > 400 µM
